biological target: GRK3/BARK2 (h) (ADRBK2) (Homo sapiens (Human), UniProt P35626); experiment: Kinase selectivity panel: GRK3/BARK2 (h) (ADRBK2); type: biochemical; conditions: 10 μM in duplicate, read-out: % inhibition of control values
Sequence (P35626 whole entry): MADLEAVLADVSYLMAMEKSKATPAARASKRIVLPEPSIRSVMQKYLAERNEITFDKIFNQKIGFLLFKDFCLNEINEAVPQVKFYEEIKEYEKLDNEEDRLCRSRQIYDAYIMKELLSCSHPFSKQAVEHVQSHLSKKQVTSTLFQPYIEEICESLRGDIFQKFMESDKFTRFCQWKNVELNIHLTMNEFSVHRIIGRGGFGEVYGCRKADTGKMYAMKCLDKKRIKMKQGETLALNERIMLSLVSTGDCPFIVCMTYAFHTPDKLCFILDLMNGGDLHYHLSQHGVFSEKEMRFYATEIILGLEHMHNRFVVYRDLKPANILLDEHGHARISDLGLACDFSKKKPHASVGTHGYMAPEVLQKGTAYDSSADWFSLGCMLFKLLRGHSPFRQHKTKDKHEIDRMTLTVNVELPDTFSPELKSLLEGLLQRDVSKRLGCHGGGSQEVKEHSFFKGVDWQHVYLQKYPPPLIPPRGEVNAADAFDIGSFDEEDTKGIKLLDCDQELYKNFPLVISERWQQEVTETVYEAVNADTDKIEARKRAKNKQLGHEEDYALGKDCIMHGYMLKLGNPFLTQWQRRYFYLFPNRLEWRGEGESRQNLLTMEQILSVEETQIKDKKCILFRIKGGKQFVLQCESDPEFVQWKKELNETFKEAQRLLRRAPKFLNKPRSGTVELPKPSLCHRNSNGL
reported-property: inhibition at 10 µM (%)
The reply should be a number in %, with the unit left off.

COc1ccc2[nH]nc(C(=O)NCC3CCN(CCC(=O)O)CC3)c2c1
0
COc1ccc2[nH]nc(C(=O)NCC3CCN(CC(=O)O)CC3)c2c1
0
COCCN1CCC(CNC(=O)c2n[nH]c3ccc(OC)cc23)CC1
0

Now turn to the next molecule.
// query I am curious: what inhibition at 10 µM value has been reported for COCCN1CCC(CNC(=O)c2n[nH]c3ccc(-c4cccc(F)c4F)cc23)CC1 ?
// result 8
